Sourced from PubChem BioAssay (EPA / NIEHS)

PROTOCOL_SUMMARY: Tanguay_ZF_120hpf_AXIS_legacy: (Legacy) Oregon State University Tanguay Lab 120 Hour Post-fertilization zebrafish Assay for Body Axis Malformation (AID 2283635);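 on AC50: potency for an increased fraction of larvae scored with body axis malformation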
Records with an inconclusive call do not appear. Activity calls are given as the source filed them. How the source made its calls: active means hit-call score of the fitted dose curve at least 0.9, where 1 is the maximum; inconclusive means response in the unintended direction; inactive means score below 0.9.
MEASURED_PARAMETER: AC50

[[record]]
molecule = "O=C(O)CCCOc1ccc(Cl)cc1Cl"
obs_value = "48.7 µM (active)"

[[record]]
molecule = "Clc1ccccc1-c1nnc(-c2ccccc2Cl)nn1"
obs_value = "inactive"

[[record]]
molecule = "ClC1C(Cl)C(Cl)C(Cl)C(Cl)C1Cl (stereo not drawn)"
obs_value = "inactive"


====

TARGET_OF_ASSAY: Estrogen receptor (Homo sapiens)
PROTOCOL_SUMMARY: ATG_ERa_TRANS: Attagene TRANS-FACTORIAL HepG2 Assay for human Estrogen Receptor alpha (ERa) (AID 2282970)
PROTOCOL_CONDITIONS: HepG2 Attagene TRANS ERa GAL4 reporter, mRNA
Results filed as inconclusive are left out. Calls of active or inactive are those of the source. How the source made its calls: active means hit-call score of the fitted dose curve at least 0.9, where 1 is the maximum; inconclusive means response in the unintended direction; inactive means score below 0.9.
API: response.call in 1 for active, -1 for inactive

Example entries begin here.
[[record]]
compound = "CNC(=O)Oc1ccccc1OC(C)C"
target_of_assay = "Estrogen receptor (Homo sapiens)"
cat = -1

[[record]]
compound = "CCC(C)(NC(=O)c1cc(Cl)c(C)c(Cl)c1)C(=O)CCl (centres undefined)"
target_of_assay = "Estrogen receptor (Homo sapiens)"
cat = -1

[[record]]
compound = "O=S1OCC2C(CO1)C1(Cl)C(Cl)=C(Cl)C2(Cl)C1(Cl)Cl (centres undefined)"
target_of_assay = "Estrogen receptor (Homo sapiens)"
cat = 1


query: Hi team, can someone confirm the assay call for "C[C@H]1[C@H](c2ccc(Cl)cc2)SC(=O)N1C(=O)NC1CCCCC1" ?
result: -1
